Ref: paper PMC6017257

valueKind: melting point

>>> valuereported("NC12CC3CC(C1)CC(C(=O)NNc1c(Cl)cncc1Cl)(C3)C2")
"191 to 192 °C"
>>> valuereported("NC12CC3CC(C1)CC(C(=O)NNc1ccc(C(F)(F)F)cc1Cl)(C3)C2")
"185 to 186 °C"
>>> valuereported("NC12CC3CC(C1)CC(C(=O)NNc1cccc(Cl)c1F)(C3)C2")
"200 to 202 °C"
>>> valuereported("CC12CC3(C)CC(N)(C1)CC(C(=O)NNc1c(Cl)cncc1Cl)(C2)C3 [Compound 15a]")
"300 to 302 °C"
>>> valuereported("NC12CC3CC(C1)CC(C(=O)NCc1ccccc1Cl)(C3)C2")
"186 to 189 °C"

====

valueKind: melting point

>>> valuereported("NC12CC3CC(C1)CC(C(=O)NNc1c(Cl)cccc1Cl)(C3)C2")
"153 to 156 °C"
>>> valuereported("NC12CC3CC(C1)CC(C(=O)NNc1ccccc1Cl)(C3)C2")
"220 to 222 °C"
>>> valuereported("CC12CC3(C)CC(N)(C1)CC(C(=O)NNc1ccccc1Cl)(C2)C3 [Compound 15b]")
"280 to 282 °C"
>>> valuereported("NC12CC3CC(C1)CC(C(=O)NNc1cccc(Cl)c1Cl)(C3)C2")
"215 to 219 °C"
>>> valuereported("NC12CC3CC(C1)CC(C(=O)NNc1ccccc1C(F)(F)F)(C3)C2")
"213 to 216 °C"

====

Target: human P2X7 receptor (Homo sapiens)
Construct: expressed in transfected cells; host or cells: HEK293
Assay: BzATP-induced ethidium bromide uptake (dye uptake) in hP2X7-expressing HEK293 cells
Assay type: cell-based
Details: P2X7; at 10 µM (left value); relative to maximum ethidium bromide uptake stimulated by BzATP 6 µM
The threshold is inclusive: inhibition at 10 µM of exactly 50% counts as yes (1); values below receive no (0).

>>> discretelabel("NC12CC3CC(C1)CC(C(=O)NNc1c(Cl)cccc1Cl)(C3)C2 [Compound 9b]")
"no (0)"
>>> discretelabel("NC12CC3CC(C1)CC(C(=O)NNc1cccc(Cl)c1F)(C3)C2 [Compound 9f]")
"no (0)"
>>> discretelabel("NC12CC3CC(C1)CC(C(=O)NNc1ccccc1C(F)(F)F)(C3)C2 [Compound 9a]")
"no (0)"
>>> discretelabel("NC12CC3CC(C1)CC(C(=O)NNc1ccc(C(F)(F)F)cc1Cl)(C3)C2 [Compound 9d]")
"no (0)"
>>> discretelabel("NC12CC3CC(C1)CC(C(=O)NNc1c(Cl)cncc1Cl)(C3)C2 [Compound 9e]")
"yes (1)"
>>> discretelabel("NC12CC3CC(C1)CC(C(=O)NNc1cccc(Cl)c1Cl)(C3)C2 [Compound 9c]")
"no (0)"

====

Molecular target: human P2X7 receptor (Homo sapiens)
Construct: expressed in transfected cells; host or cells: HEK293
Assay: BzATP-induced ethidium bromide uptake (dye uptake) in hP2X7-expressing HEK293 cells
Assay type: cell-based
Conditions: P2X7; at 1 μM (right value); relative to maximum ethidium bromide uptake stimulated by BzATP 6 µM
The threshold is inclusive: inhibition at 1 µM of exactly 20% counts as 1.0; values below receive 0.0.

>>> discretelabel("NC12CC3CC(C1)CC(C(=O)NNc1ccccc1C(F)(F)F)(C3)C2")
1.0
>>> discretelabel("NC12CC3CC(C1)CC(C(=O)NNc1cccc(Cl)c1F)(C3)C2")
0.0
>>> discretelabel("NC12CC3CC(C1)CC(C(=O)NNc1c(Cl)cccc1Cl)(C3)C2")
0.0
>>> discretelabel("NC12CC3CC(C1)CC(C(=O)NNc1c(Cl)cncc1Cl)(C3)C2")
1.0
>>> discretelabel("NC12CC3CC(C1)CC(C(=O)NNc1ccc(C(F)(F)F)cc1Cl)(C3)C2")
1.0
>>> discretelabel("NC12CC3CC(C1)CC(C(=O)NNc1cccc(Cl)c1Cl)(C3)C2")
0.0

====

Target: human P2X7 receptor (Homo sapiens, UniProt Q99572)
Sequence (Q99572 1-595): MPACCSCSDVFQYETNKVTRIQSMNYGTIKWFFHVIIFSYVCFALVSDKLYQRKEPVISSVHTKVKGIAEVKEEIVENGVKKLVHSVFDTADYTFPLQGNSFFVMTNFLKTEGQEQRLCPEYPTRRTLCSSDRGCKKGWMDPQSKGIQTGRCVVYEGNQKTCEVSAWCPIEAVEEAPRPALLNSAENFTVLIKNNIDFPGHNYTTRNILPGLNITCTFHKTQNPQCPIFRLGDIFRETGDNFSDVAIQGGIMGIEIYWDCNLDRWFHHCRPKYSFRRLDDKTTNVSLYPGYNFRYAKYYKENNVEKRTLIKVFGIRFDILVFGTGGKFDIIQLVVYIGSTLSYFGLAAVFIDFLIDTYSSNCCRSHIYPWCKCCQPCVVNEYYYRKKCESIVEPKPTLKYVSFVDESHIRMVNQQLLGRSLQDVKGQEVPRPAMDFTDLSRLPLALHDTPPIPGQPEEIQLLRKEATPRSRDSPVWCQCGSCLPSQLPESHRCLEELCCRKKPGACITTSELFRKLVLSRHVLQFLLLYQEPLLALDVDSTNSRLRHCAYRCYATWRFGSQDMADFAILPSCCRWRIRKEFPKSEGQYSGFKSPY
Assay: BzATP-induced ethidium bromide uptake (dye uptake) in hP2X7-expressing HEK293 cells
Details: ethidium bromide accumulation stimulated by BzATP 6 µM, hP2X7-expressing HEK293 cells; from concentration-response curves
Property: IC50; scope: individual compounds
valueKind: IC50 (µM)

>>> valuereported("NC12CC3CC(C1)CC(C(=O)NNc1ccccc1Cl)(C3)C2")
6
>>> valuereported("CC12CC3(C)CC(N)(C1)CC(C(=O)NNc1c(Cl)cncc1Cl)(C2)C3 [Compound 15a]")
9.9
>>> valuereported("O=C(NCC12CC3CC(CC(C3)C1)C2)c1cc(CCCNCCCO)ccc1Cl [AZD9056, reference compound]")
0.0041
>>> valuereported("CC12CC3(C)CC(N)(C1)CC(C(=O)NNc1ccccc1Cl)(C2)C3 [Compound 15b]")
16.1

====

Tested on: NMDA receptors
Assay: Inhibition of NMDA-evoked increase in intracellular calcium in rat cultured cerebellar granule neurons
Format: cell-based
Details: NMDA 100 μM with 10 μM glycine, rat cerebellar granule neurons; read-out: IC50 (NMDA receptor)
valueKind: IC50 (µM)

>>> valuereported("NC12CC3CC(C1)CC(C(=O)NNc1ccccc1Cl)(C3)C2")
468
